# System: LATS1;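 also: KINOMEscan kinase panel screen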
# CONDITION LABEL: concentration: 1 μM,replicates: in singlicate; n = 1
PROPERTY: %Inh (%)
Write the answer as a number in %, unit excluded.

Endpoint output: %Inh of CC(=O)Nc1ccc(-c2cc3ncnc(SCC(=O)O)c3s2)cc1 . Value?
0

Consider the molecule shown here: CCN1CCN(CCCC(=O)Nc2n[nH]c3nc(-c4ccc(O)cc4)c(Br)cc23)CC1 What is its recorded %Inh?
0

I'd like to know its %Inh. The molecule in question is COc1cc2nccc(Nc3ccc(Oc4ccccc4)cc3)c2cc1OC.Cl
0

Given the entry CN1CCN(CCCNc2nccc(-c3c(-c4ccc(F)cc4)nn4cc(C(N)=O)ccc34)n2)CC1 , report its measured %Inh.
0

For the molecule Cn1ccc2ncnc(Oc3ccc(NC(=O)Nc4ccnc(C(F)(F)F)c4)c(Cl)c3)c21 , what %Inh is on record?
11

Form field: reported %Inh of CC(C)S(=O)(=O)N1CCN(Cc2ccc3c(c2)nc(NC(=O)c2ccsc2)n3C[C@H](O)c2ccccc2)CC1
0

Which %Inh reading was recorded for the molecule COc1cc(Nc2nccc(N3CCC(NC(=O)c4cccc(C#N)c4)C3)n2)cc(OC)c1OC (stereo not drawn) ?
0

Any idea what %Inh was measured for O=C(Nc1n[nH]c2cc(-c3ccco3)ccc12)C1CC1 ?
0
